Form field: Rel EC50 (one value per entry).
# measured on: T1, DcR3 (UniProt O95407 30-300, limits assumed)
# T1 construct: the construct is not described; also called decoy receptor DcR3; TNFRSF6B
# T1 sequence (looked up): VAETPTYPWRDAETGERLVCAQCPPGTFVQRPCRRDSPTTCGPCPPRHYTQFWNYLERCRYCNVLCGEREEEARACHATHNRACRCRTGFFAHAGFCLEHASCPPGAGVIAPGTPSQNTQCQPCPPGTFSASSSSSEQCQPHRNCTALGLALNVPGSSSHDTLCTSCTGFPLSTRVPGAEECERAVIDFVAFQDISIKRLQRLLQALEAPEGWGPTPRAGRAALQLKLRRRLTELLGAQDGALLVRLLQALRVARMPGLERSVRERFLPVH
# measurement protocol: ELISA, DcR3
measured metric: Rel EC50

{"binder": "TL1W94 (His-TEV-TL1A M158E) (ligand, also called TL1W94 (M158E)) HHHHHHENLYFQGLKGQEFAPSHQQVYAPLRADGDKPRAHLTVVRQTPTQHFKNQFPALHWEHELGLAFTKNRMNYTNKFLLIPESGDYFIYSQVTFRGETSECSEIRQAGRPNKPDSITVVITKVTDSYPEPTQLLMGTKSVCEVGSNWFQPIYLGAMFSLQEGDKLMVNVSDISLVDYTKEDKTFFGAFLL", "value observed": "4.1 ratio (head: nM)"}
{"binder": "TL1W40 (His-TEV-TL1A L123S) (ligand, also called TL1W40 (L123S)) HHHHHHENLYFQGLKGQEFAPSHQQVYAPLRADGDKPRAHLTVVRQTPTQHFKNQFPALHWEHESGLAFTKNRMNYTNKFLLIPESGDYFIYSQVTFRGMTSECSEIRQAGRPNKPDSITVVITKVTDSYPEPTQLLMGTKSVCEVGSNWFQPIYLGAMFSLQEGDKLMVNVSDISLVDYTKEDKTFFGAFLL", "value observed": "3.6 ratio (head: nM)"}
{"binder": "TL1W111 (His-TEV-TL1A S187D) (ligand, also called TL1W111 (S187D)) HHHHHHENLYFQGLKGQEFAPSHQQVYAPLRADGDKPRAHLTVVRQTPTQHFKNQFPALHWEHELGLAFTKNRMNYTNKFLLIPESGDYFIYSQVTFRGMTSECSEIRQAGRPNKPDSITVVITKVTDDYPEPTQLLMGTKSVCEVGSNWFQPIYLGAMFSLQEGDKLMVNVSDISLVDYTKEDKTFFGAFLL", "value observed": "3.6 ratio (head: nM)"}
